Measured response by item
B1: Arabidopsis cryptochrome 2, truncated CRY2(535) (residues 1-535), wild type [Arabidopsis thaliana] / itself (parent)
chain: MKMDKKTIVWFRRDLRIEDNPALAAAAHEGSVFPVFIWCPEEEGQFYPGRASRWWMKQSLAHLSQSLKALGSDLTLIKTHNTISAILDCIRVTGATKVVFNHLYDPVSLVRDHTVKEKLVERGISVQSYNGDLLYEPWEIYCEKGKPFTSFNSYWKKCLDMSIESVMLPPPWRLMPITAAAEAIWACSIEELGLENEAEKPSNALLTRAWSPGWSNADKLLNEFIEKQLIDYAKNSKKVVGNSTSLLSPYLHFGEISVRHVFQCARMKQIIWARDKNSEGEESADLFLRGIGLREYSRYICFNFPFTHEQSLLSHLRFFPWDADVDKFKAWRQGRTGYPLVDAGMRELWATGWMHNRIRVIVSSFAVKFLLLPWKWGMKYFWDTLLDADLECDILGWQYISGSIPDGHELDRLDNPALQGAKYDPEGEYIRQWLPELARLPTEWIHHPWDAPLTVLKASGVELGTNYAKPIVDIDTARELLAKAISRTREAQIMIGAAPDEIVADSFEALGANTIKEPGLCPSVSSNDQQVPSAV

- Variants of: B1
- protocol-details: yeast two-hybrid, quantitative GalUAS-lacZ (beta-galactosidase) reporter assay
- assay-setup: with itself; dark; strain AH109; parent: 25; read off a plot
# unit: Miller units | format: bare number

Example variants with recorded response:
chain 1 M378R | 210
chain 1 W374A | 170
chain 1 D393S | 170

Asked: Give the measured response of chain 1 D393A .
Given back: 160
